- Test system: wild type L. donovani AG83 promastigotes
- Experimental protocol: DNA fragmentation assay (cell death detection ELISA), wild type
- Type: cell-based, Leishmania donovani
- Experimental conditions: 20 µM, 8 h
# reported fragmentation of DNA; entries follow
# output: bare number, implied unit %

Which fragmentation of DNA is listed for c1ccc2c(Cc3c[nH]c4ccccc34)c[nH]c2c1 [DIM, 3, 3′-diindolyl methane, reference compound] ?
85

Need fragmentation of DNA of COc1ccc2[nH]cc(Cc3c[nH]c4ccc(OC)cc34)c2c1 [DMODIM, 5,5′-dimethoxy 3,3′-diindolyl methane] , thanks.
71

Fill blank: measured fragmentation of DNA of the compound Cc1[nH]c2ccccc2c1Cc1c(C)[nH]c2ccccc12 [DMDIM, 2,2′-dimethyl 3,3′-diindolyl methane] is ____.
81

Given the compound c1ccc(-c2[nH]c3ccccc3c2Cc2c(-c3ccccc3)[nH]c3ccccc23)cc1 [DPDIM, 2,2′-diphenyl 3,3′-diindolyl methane] , what is its reported fragmentation of DNA?
89
